The measurements presented in this section are drawn from patent US9403843B2.

target: papain (Carica papaya (Papaya), UniProt P00784); experiment: biochemical; assay type: biochemical; settings: inhibition rate
Sequence (P00784 134-345): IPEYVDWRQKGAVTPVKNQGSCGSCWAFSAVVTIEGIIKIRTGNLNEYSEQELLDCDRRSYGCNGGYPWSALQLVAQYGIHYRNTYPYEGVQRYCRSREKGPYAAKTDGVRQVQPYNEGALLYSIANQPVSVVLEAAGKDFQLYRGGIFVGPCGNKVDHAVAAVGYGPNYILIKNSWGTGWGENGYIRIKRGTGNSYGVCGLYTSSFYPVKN
For each record, write down the corresponding ki Papain.
Numbers only, in s⁻¹.

Would you please look over these solved cases?
- C#Cc1ccc(-c2csc(NC(=O)[C@H](Cc3cscn3)NC(=O)[C@H]3O[C@@H]3C(=O)O)n2)cc1: 21.6
- O=C(NCc1cn(-c2ccc(F)cc2)nn1)[C@H](Cc1cscn1)NC(=O)[C@H]1O[C@@H]1C(=O)O: 12.7

For every record below, what is its ki Papain?
1. O=C(O)C1OC1C(=O)N[C@@H](Cc1cscn1)C(=O)Nc1nc(-c2ccc(F)cc2)cs1 (stereo in doubt)
2. CC(C)C[C@H](NC(=O)C1O[C@@H]1C(=O)O)C(=O)NCCCCNC(=N)N (some centres unmarked) [Compound E64, reference compound]
3. CC(C)C[C@H](NC(=O)[C@H]1O[C@@H]1C(=O)O)C(=O)Nc1nc(-c2ccc(F)cc2)cs1 [Compound 24a]

[14.8, 28.6, 17.1]

====

For each record, write down the corresponding ki Calpain1.
target: Full length porcine calpain (Sus scrofa (Pig)); test: Calpain inhibition kinetics studies (Suc-LLVY-AMC substrate); format: biochemical; conditions: inhibition rate, full length Cal1
Numbers only, in s⁻¹.

Would you please look over these solved cases?
• CC(C)C[C@H](NC(=O)C1O[C@@H]1C(=O)O)C(=O)NCCCCNC(=N)N (some centres unmarked) [Compound E64, reference compound] = 0.12
• CC(C)C[C@H](NC(=O)[C@H]1O[C@@H]1C(=O)O)C(=O)Nc1nc(-c2ccc(F)cc2)cs1 [Compound 24a] = 0.16
• O=C(O)C1OC1C(=O)N[C@@H](Cc1cscn1)C(=O)Nc1nc(-c2ccc(F)cc2)cs1 (stereo in doubt) = 0.08
• O=C(NCc1cn(-c2ccc(F)cc2)nn1)[C@H](Cc1cscn1)NC(=O)[C@H]1O[C@@H]1C(=O)O = 0.10

May I ask what ki Calpain1 has been recorded for `C#Cc1ccc(-c2csc(NC(=O)[C@H](Cc3cscn3)NC(=O)[C@H]3O[C@@H]3C(=O)O)n2)cc1` ?
0.14

====

target: full-length human Cal1 (Homo sapiens (Human)); assay: Calpain inhibition FRET assay; type: biochemical; conditions: Table 2; approximate IC50; read-out: Cal I IC50
For each record, write down the corresponding IC50.
Give bare numbers, in nM.

• Cc1cc(C)c(NC(=O)[C@H](Cc2cnc[nH]2)NC(=O)[C@H]2O[C@@H]2C(=O)O)c(C)c1 = 5000

May I ask what IC50 has been recorded for `C#CCNC(=O)[C@H](CC(C)C)NC(=O)[C@H]1O[C@@H]1C(=O)O` ?
275

====

biological target: full-length human Cal1 (Homo sapiens (Human), UniProt P07384); experiment: Calpain inhibition FRET assay; format: biochemical; details: Table 2; approximate IC50; read-out: Cal I IC50
Sequence (P07384 whole entry): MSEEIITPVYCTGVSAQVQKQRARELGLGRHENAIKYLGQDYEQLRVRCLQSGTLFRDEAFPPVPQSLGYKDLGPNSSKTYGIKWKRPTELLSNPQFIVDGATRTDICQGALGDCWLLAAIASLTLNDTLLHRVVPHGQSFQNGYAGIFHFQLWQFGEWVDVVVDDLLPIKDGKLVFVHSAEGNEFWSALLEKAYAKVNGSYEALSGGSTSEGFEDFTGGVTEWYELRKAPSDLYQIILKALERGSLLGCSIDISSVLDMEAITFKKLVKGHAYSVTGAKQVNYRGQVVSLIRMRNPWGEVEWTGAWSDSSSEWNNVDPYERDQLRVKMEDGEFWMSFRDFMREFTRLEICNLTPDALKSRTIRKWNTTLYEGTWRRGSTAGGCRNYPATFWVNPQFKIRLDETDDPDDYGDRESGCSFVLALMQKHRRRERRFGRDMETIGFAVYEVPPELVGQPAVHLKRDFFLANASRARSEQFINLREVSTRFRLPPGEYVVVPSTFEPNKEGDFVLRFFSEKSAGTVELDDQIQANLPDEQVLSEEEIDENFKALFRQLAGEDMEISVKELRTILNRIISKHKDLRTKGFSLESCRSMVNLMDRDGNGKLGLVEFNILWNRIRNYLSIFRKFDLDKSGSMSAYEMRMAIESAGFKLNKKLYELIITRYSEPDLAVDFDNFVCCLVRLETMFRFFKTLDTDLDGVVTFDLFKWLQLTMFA
Sequence (P04632 whole entry partner): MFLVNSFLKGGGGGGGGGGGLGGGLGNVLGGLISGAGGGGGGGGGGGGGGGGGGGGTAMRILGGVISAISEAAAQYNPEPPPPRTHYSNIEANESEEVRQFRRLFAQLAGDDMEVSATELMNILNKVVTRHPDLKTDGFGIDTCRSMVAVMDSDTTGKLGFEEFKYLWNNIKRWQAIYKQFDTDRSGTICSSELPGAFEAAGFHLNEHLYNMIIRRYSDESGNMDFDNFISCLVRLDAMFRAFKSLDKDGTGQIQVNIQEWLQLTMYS
For each record, write down the corresponding log10(IC50).
Annotation: log10 of IC50, nM basis.

* CC(C)C[C@H](NC(=O)[C@H]1O[C@@H]1C(=O)O)C(=O)NCCCCNS(=O)(=O)c1ccc(F)cc1 [Compound 25] | 2.00
* O=C(Nc1nc2ccc(F)cc2s1)[C@H](Cc1c[nH]cn1)NC(=O)[C@H]1O[C@@H]1C(=O)O [Compound 31a] | 2.73
* O=C(Nc1ccccc1)[C@H](Cc1cnc[nH]1)NC(=O)[C@H]1O[C@@H]1C(=O)O | 3.70
* O=C(NCc1cn(-c2ccc3c(c2)OCO3)nn1)[C@H](Cc1cscn1)NC(=O)[C@H]1O[C@@H]1C(=O)O | 2.60
* O=C(O)C1OC1C(=O)N[C@@H](Cc1cscn1)C(=O)Nc1nc(-c2ccc(F)cc2)cs1 (stereo in doubt) | 2.00

For every record below, what is its log10(IC50)?
1. CC(C)C[C@H](NC(=O)[C@H]1O[C@@H]1C(=O)O)C(=O)NCCCCNC(=O)CCCC[C@@H]1SC[C@@H]2NC(=O)N[C@@H]21
2. CC(C)C[C@H](NC(=O)C1O[C@@H]1C(=O)O)C(=O)NCCCCNC(=N)N (stereo partly drawn) [Compound E64, reference compound]
3. CC(C)C[C@H](NC(=O)[C@H]1O[C@@H]1C(=O)O)C(=O)NCc1cn(-c2ccc(S(N)(=O)=O)cc2)nn1

1: 2.18; 2: 2.00; 3: 1.70

====

For each record, write down the corresponding Ki.
target: Full length porcine calpain (Sus scrofa (Pig), UniProt P35750)
Sequence (P35750 whole entry): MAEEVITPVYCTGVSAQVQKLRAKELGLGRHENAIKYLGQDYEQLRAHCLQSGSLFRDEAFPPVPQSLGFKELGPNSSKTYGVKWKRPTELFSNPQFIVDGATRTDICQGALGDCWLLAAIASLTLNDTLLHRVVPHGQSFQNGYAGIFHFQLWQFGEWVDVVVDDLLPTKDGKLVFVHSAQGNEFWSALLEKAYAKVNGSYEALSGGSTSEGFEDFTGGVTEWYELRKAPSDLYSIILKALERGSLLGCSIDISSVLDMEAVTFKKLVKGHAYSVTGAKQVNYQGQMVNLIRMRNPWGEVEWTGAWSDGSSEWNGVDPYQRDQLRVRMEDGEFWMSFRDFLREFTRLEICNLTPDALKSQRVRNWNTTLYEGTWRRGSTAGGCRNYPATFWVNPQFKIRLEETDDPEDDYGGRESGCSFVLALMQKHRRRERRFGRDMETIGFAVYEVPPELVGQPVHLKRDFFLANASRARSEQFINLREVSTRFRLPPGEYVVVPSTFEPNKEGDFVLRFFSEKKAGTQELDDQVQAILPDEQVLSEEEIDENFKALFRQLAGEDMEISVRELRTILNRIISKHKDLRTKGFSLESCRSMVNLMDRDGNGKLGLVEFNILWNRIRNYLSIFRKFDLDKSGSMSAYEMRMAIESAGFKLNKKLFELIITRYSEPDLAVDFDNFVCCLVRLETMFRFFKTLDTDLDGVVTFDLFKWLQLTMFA
Sequence (P04574 whole entry partner): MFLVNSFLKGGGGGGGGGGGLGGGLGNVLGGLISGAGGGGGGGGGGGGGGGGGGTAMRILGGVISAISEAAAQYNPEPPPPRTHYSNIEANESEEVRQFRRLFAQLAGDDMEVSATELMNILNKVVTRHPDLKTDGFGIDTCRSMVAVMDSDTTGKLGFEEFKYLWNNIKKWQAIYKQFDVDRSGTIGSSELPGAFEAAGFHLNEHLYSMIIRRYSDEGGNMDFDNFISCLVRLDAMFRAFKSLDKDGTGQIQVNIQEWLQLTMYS
Give bare numbers, in µM.

Would you please look over these solved cases?
• CC(C)C[C@H](NC(=O)[C@H]1O[C@@H]1C(=O)O)C(=O)Nc1nc(-c2ccc(F)cc2)cs1 [Compound 24a] = 6
• C#Cc1ccc(-c2csc(NC(=O)[C@H](Cc3cscn3)NC(=O)[C@H]3O[C@@H]3C(=O)O)n2)cc1 = 3.5
• CC(C)C[C@H](NC(=O)C1O[C@@H]1C(=O)O)C(=O)NCCCCNC(=N)N (some centres unmarked) [Compound E64, reference compound] = 4
• O=C(NCc1cn(-c2ccc(F)cc2)nn1)[C@H](Cc1cscn1)NC(=O)[C@H]1O[C@@H]1C(=O)O = 2.9

Item O=C(O)C1OC1C(=O)N[C@@H](Cc1cscn1)C(=O)Nc1nc(-c2ccc(F)cc2)cs1 (stereo in doubt) with Full length porcine calpain (Sus scrofa (Pig), UniProt P35750) - Ki?
2.6

====

For each record, write down the corresponding rel Papain.
molecular target: papain (Carica papaya (Papaya), UniProt P00784); test: biochemical; assay type: biochemical; conditions: ki/Ki calculated relative to E-64

Would you please look over these solved cases?
• C#Cc1ccc(-c2csc(NC(=O)[C@H](Cc3cscn3)NC(=O)[C@H]3O[C@@H]3C(=O)O)n2)cc1 [Compound 34] = 0.40
• O=C(NCc1cn(-c2ccc(F)cc2)nn1)[C@H](Cc1cscn1)NC(=O)[C@H]1O[C@@H]1C(=O)O [Compound 50] = 0.12
• CC(C)C[C@H](NC(=O)[C@H]1O[C@@H]1C(=O)O)C(=O)Nc1nc(-c2ccc(F)cc2)cs1 [Compound 24a] = 1.9
• CC(C)C[C@H](NC(=O)C1O[C@@H]1C(=O)O)C(=O)NCCCCNC(=N)N (some centres unmarked) [Compound E64, reference compound] = 1

The record that follows has no rel Papain shown yet.
May I ask what rel Papain has been recorded for O=C(O)C1OC1C(=O)N[C@@H](Cc1cscn1)C(=O)Nc1nc(-c2ccc(F)cc2)cs1 (stereo in doubt) [Compound 33] ?
0.50

====

molecular target: papain (Carica papaya (Papaya), UniProt P00784); assay: biochemical; format: biochemical; conditions: mean ± S.D. of triplicate experiments
measured endpoint: 10^−5 × ki/Ki Papain
One number for each entry.

Would you please look over these solved cases?
• O=C(O)C1OC1C(=O)N[C@@H](Cc1cscn1)C(=O)Nc1nc(-c2ccc(F)cc2)cs1 (stereo in doubt) [Compound 33] = 27.9
• O=C(NCc1cn(-c2ccc(F)cc2)nn1)[C@H](Cc1cscn1)NC(=O)[C@H]1O[C@@H]1C(=O)O [Compound 50] = 6.62
• C#Cc1ccc(-c2csc(NC(=O)[C@H](Cc3cscn3)NC(=O)[C@H]3O[C@@H]3C(=O)O)n2)cc1 [Compound 34] = 22.3

The record that follows has no 10^−5 × ki/Ki Papain shown yet.
May I ask what 10^−5 × ki/Ki Papain has been recorded for CC(C)C[C@H](NC(=O)C1O[C@@H]1C(=O)O)C(=O)NCCCCNC(=N)N (stereo partly shown) [Compound E64, reference compound] ?
56.3

====

molecular target: Full length porcine calpain (Sus scrofa (Pig)); test: Calpain inhibition kinetics studies (Suc-LLVY-AMC substrate); type: biochemical; conditions: mean ± S.D. of triplicate experiments
measured endpoint: 10^−4 × ki/Ki Calpain1

Would you please look over these solved cases?
* CC(C)C[C@H](NC(=O)C1O[C@@H]1C(=O)O)C(=O)NCCCCNC(=N)N (stereo partly shown) [Compound E64, reference compound] | 3.02 ± 0.15
* O=C(O)C1OC1C(=O)N[C@@H](Cc1cscn1)C(=O)Nc1nc(-c2ccc(F)cc2)cs1 (stereo in doubt) [Compound 33] | 2.96 ± 0.14
* O=C(NCc1cn(-c2ccc(F)cc2)nn1)[C@H](Cc1cscn1)NC(=O)[C@H]1O[C@@H]1C(=O)O [Compound 50] | 3.31 ± 0.32

The record that follows has no 10^−4 × ki/Ki Calpain1 shown yet.
May I ask what 10^−4 × ki/Ki Calpain1 has been recorded for C#Cc1ccc(-c2csc(NC(=O)[C@H](Cc3cscn3)NC(=O)[C@H]3O[C@@H]3C(=O)O)n2)cc1 [Compound 34] ?
3.89 ± 0.41
